Origin of measurements: PubChem BioAssay

Test: probe aShh binding to arrayed compounds – biochemical, biotinylated probe, 635/667 nm fluorescence, primary screen (AID 1114);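 further: probe is biotin-labelled aShh protein from a stem cell growth factor screen; measures binding of labelled protein to compounds printed on the slide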
Details: small-molecule microarray, higher = more signal
Think of 0.2 as a floor: if composite z-score stands on it or above, it is true; beneath it, false.

[Q] Given the entry COCCOC(=O)N1C(=O)[C@@]2(c3cc(C#CC4(O)CCCCCC4)ccc31)[C@H](c1ccc(O)cc1)N1[C@H](c3ccccc3)[C@H](c3ccccc3)OC(=O)[C@H]1[C@@H]2C(=O)N1CCN(c2ncccn2)CC1 , answer whether its composite z-score meets or surpasses 0.2.
[A] true

[Q] In plain terms: is recorded composite z-score at least 0.2 for COC(=O)[C@@]1(Cc2ccc(OC)cc2)[C@H]2c3cc(C(=O)N(C)C)n(Cc4ccc(OC(F)(F)F)cc4)c3C[C@H]2CN1C(=O)c1ccccc1 ?
[A] true

[Q] Threshold query (composite z-score >= 0.2) on C=C[C@H](C)[C@H](OC(=O)Nc1ccc(SC)cc1)c1ccc(OCCO)cc1
[A] false

[Q] Does the reported composite z-score for CN1C(=O)C2C=CC(C(O)c3cccn3C)N(Nc3ccc([N+](=O)[O-])cc3[N+](=O)[O-])C2C1=O (stereo unspecified) fall at or above the 0.2 mark?
[A] true

[Q] Is composite z-score for O=C(Cc1ccccc1)[C@H]1C2C=CCCC(c3ccccc3)=C2CN1Cc1ccccc1 (stereo partly specified) at or above 0.2?
[A] false

[Q] I'd appreciate it if you could say whether CC(C)[Si]1(C(C)C)OCc2cc(-c3ccc(-c4ccc(Cl)c(Cl)c4)o3)nc(-c3ccccc3)c21 has composite z-score at least equal to 0.2.
[A] false

[Q] Given COc1ccc([Si](C)(C)[C@@H]2[C@@H](CCO)O[C@]3(C(=O)N(Cc4ccccc4)c4ccc(N5CCOC5=O)cc43)[C@H]2C)cc1 , state whether its composite z-score is at least 0.2.
[A] false

[Q] Quick check: does CCCC#C[Si](O[C@H](CC)c1cn([C@H](C)c2ccccc2)nn1)(C(C)C)C(C)C have composite z-score greater than or equal to 0.2?
[A] true

[Q] Could you verify whether the entry O=C(O)[C@@H]1[C@@H]2C(=O)N(c3ccccc3)C(=O)[C@@H]2C[C@@H]1Sc1ccccc1 shows composite z-score of no less than 0.2?
[A] true

[Q] Test whether the compound CCOC(=O)[C@@H]1CCCCN1C(=O)C(=O)OC records composite z-score of 0.2 or higher.
[A] false

[Q] State whether the measured composite z-score reaches 0.2, counting equality as reaching it, for COCCCNC(=O)[C@@]1(CCC(=O)OC(C)(C)C)N=C(c2ccc(OCCCO)cc2)O[C@H]1c1ccccc1N=[N+]=[N-]
[A] false

[Q] Hello, I need to know if CCCCC(CC)C(O)C1C=CC2C(=O)N(C)C(=O)C2N1Nc1ccccc1 (stereo unspecified) has measured composite z-score not below 0.2. Thanks!
[A] false

[Q] Kindly determine if composite z-score recorded for CC1=C2[C@@H](CCc3ccccc3)OB(O)C[C@@H]2[C@@H]2C(=O)N(Cc3ccccc3)C(=O)[C@@H]2C1 is above or exactly 0.2.
[A] false

[Q] # bool: composite z-score of CCCN1C(=O)[C@@]2(Cc3ccccc31)N=C(c1ccc(OCCCO)cc1)O[C@H]2c1ccccc1 >= 0.2
[A] false

[Q] Given O=C1OCCC=C[C@H]2OC34C=CCN(c5ccc6ccccc6c5)C(=O)[C@H]3N(CCCO)C(=O)[C@@H]4C12 (stereo partly specified) , state whether its composite z-score is at least 0.2.
[A] false
